Target: PAK4 Kinase domain (PAK4 KD) (Homo sapiens, UniProt O96013)
Construct: Cloning, expression, and purification of recombinant PAK4 Kinase domain (PAK4 KD); His tag (pET28a(+)/pET24a(+), Ni-NTA purification) (N, cleaved yes); GST (pGST4.5, glutathione column) (N, cleaved yes); made in house; host or cells: E. coli BL21(DE3)
Sequence (O96013 321-572 limits assumed): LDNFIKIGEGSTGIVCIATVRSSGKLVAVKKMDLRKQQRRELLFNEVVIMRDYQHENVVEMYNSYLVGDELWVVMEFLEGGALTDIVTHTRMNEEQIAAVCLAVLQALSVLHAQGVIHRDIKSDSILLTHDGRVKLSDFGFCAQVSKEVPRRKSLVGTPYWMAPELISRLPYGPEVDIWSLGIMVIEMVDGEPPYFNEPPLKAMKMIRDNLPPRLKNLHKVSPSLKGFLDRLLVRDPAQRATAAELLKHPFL
Test: PAK4 kinase domain enzymatic assay (PK/LDH-coupled, Ki)
Format: biochemical
reported_property: inhibition at 1 µM (%)

# example entries with known answers
CCc1ccc(C(=O)Nc2n[nH]c3c2CN(C(=O)NC2CC2c2ccccc2)C3(C)C)cc1 (stereo not shown) :: 70
Cc1cc(C(=O)Nc2n[nH]c3c2CN(C(=O)NC2CC2c2ccccc2)C3(C)C)n(C)n1 (stereo not shown) :: 65

[a] CN(C)C[C@@H](NC(=O)N1Cc2c(NC(=O)C3COc4ccccc4O3)n[nH]c2C1(C)C)c1ccccc1 (stereo partly shown)
[b] CN(C)C[C@@H](NC(=O)N1Cc2c(NC(=O)c3cnccn3)n[nH]c2C1(C)C)c1ccccc1
Field: lower inhibition at 1 µM | Options: a / b Let me know the label of the one you choose.
b
(b: 42%, a: 66%)
